# IC50 per record follows
- Test system: IL-2-stimulated HEK-Blue IL-2 reporter cells
- Method Notes: HEK-Blue IL-2 reporter assay (STAT5-inducible SEAP) for determining selectivity
- Assay type: cell-based
- Study Conditions: 4 ng/mL human recombinant IL-2, 24 hours
Measure Name: IC50

| Structure | Meas Value |
| --- | --- |
| [2H]C([2H])([2H])NC(=O)c1nnc(NC(=O)C2CC2)cc1Nc1cccc2c1N(C)Cc1cn(C)nc1-2 | > 1000 nM |
| CNC(=O)c1nnc(Nc2ccc(F)cn2)cc1Nc1cccc2c1OCc1cnn(C)c1-2 | 300 to 1000 nM |
| [2H]C([2H])([2H])NC(=O)c1cnc(Nc2cc(C)nc(C)n2)cc1Nc1cccc2c1N(C)Cc1cn(C)nc1-2 | 300 to 1000 nM |
| [2H]C([2H])([2H])NC(=O)c1nnc(NC(=O)NC)cc1Nc1cccc2c1N(C)C([2H])([2H])c1cn(C)nc1-2 | > 1000 nM |
| [2H]C([2H])([2H])NC(=O)c1cnc(NC(=O)C2CC2)cc1Nc1cccc2c1N(C)C([2H])([2H])c1cn(C)nc1-2 | > 1000 nM |
| [2H]C([2H])([2H])NC(=O)c1cnc(NC(=O)C2CC2)cc1Nc1cccc2c1N(C)Cc1c[nH]nc1-2 | > 1000 nM |
| CNC(=O)c1nnc(NC(=O)C2CC2)cc1Nc1cccc2c1OCc1cnn(C)c1-2 | 30 to 300 nM |
| [2H]C([2H])([2H])NC(=O)c1cnc(N2CCN(C(C)C)C2=O)cc1Nc1cccc2c1N(C)C([2H])([2H])c1cn(C)nc1-2 | > 1000 nM |
| [2H]C([2H])([2H])NC(=O)c1nnc(NC(=O)NC)cc1Nc1nccc2c1N(C)Cc1cc(C)nn1-2 | > 1000 nM |
| [2H]C([2H])([2H])NC(=O)c1nnc(NC(=O)C2CC2)cc1Nc1cccc2c1N(C)Cc1c[nH]nc1-2 | > 1000 nM |
| [2H]C([2H])([2H])NC(=O)c1nnc(NC(=O)NC)cc1Nc1nccc2c1N(C)C([2H])([2H])c1cn(C)nc1-2 | > 1000 nM |
| [2H]C([2H])([2H])NC(=O)c1nnc(NC(=O)N(C)C)cc1Nc1nccc2c1N(C)C([2H])([2H])c1cn(C)nc1-2 | > 1000 nM |
| CNC(=O)c1nnc(NC(=O)C2CC2)cc1Nc1cccc2c1OCc1cn(C3COC3)nc1-2 | 300 to 1000 nM |
| [2H]C([2H])([2H])NC(=O)c1cnc(NC(=O)C2CC2)cc1Nc1nccc2c1N(C)Cc1cn(C)nc1-2 | > 1000 nM |
